I'd be grateful if you could share measured viability, T/C for these entries.
Tested on: 695427-040-R-J1-PDC complex spheroid viability;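 note: viability read after seven days of drug exposure; 100% = DMSO vehicle control viability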
test description: Anticancer human tumor 695427-040-R-J1-PDC patient-derived colon adenocarcinoma cell line growth inhibition [RAS]
condition info: second compound 0.0316 µM; first compound 0.3 µM; stronger effect = lower value
Answers are plain numbers, in %.

{"molecule": "CCc1c2c(nc3ccc(O)cc13)-c1cc3c(c(=O)n1C2)COC(=O)[C@]3(O)CC + C=CC(=O)N1CCN(c2nc(OCC3CCCN3C)nc3c(F)c(-c4nc(N)cc(C)c4C(F)(F)F)c(Cl)cc23)C(C)C1", "u": "%", "viability, T/C": 25.6}
{"molecule": "CCc1c2c(nc3ccc(O)cc13)-c1cc3c(c(=O)n1C2)COC(=O)[C@]3(O)CC + C#Cc1c(F)ccc2cc(O)cc(-c3ncc4c(N5CC6CCC(C5)N6)nc(OCC56CCCN5CC(F)C6)nc4c3F)c12", "u": "%", "viability, T/C": 30.4}
{"molecule": "CC1(C)CCC(Nc2ncc(C(F)(F)F)c(-c3c[nH]c4c(P(C)(C)=O)c(C#N)ccc34)n2)CN1 (centres undefined) + C=CC(=O)N1CCN(c2nc(OCC3CCCN3C)nc3c(F)c(-c4nc(N)cc(C)c4C(F)(F)F)c(Cl)cc23)C(C)C1", "u": "%", "viability, T/C": 77.4}

Kindly consider the entry below.
Respond only with viability, T/C recorded for CC1(C)CCC(Nc2ncc(C(F)(F)F)c(-c3c[nH]c4c(P(C)(C)=O)c(C#N)ccc34)n2)CN1 (centres undefined) + C#Cc1c(F)ccc2cc(O)cc(-c3ncc4c(N5CC6CCC(C5)N6)nc(OCC56CCCN5CC(F)C6)nc4c3F)c12
80.3
